- assayTarget: GSK3b (GST-full length GSK3b) (Homo sapiens (Human), UniProt P49841)
- Sequence (P49841 whole entry): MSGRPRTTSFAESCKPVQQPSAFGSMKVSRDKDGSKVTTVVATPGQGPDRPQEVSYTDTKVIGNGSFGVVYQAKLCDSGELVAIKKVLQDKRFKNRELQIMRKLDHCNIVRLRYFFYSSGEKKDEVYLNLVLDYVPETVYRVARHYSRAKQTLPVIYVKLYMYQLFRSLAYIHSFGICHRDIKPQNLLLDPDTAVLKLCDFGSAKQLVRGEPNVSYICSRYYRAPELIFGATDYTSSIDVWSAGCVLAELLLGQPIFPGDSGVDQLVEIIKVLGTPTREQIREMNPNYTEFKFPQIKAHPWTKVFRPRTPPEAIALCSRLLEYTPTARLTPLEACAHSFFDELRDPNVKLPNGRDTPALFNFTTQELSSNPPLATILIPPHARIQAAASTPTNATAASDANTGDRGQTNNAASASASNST
- methodNotes: GSK3b TR-FRET kinase assay
- Format: biochemical
- testSettings: 1 nM GSK3b, 2 μM ATP, 30 minute preincubation; geometric mean; read-out: GSK3-B TR-FRET BIOCHEMICAL (TR-FRET); GMean; IC50
readoutKind: IC50

Past entries and their recorded results:
> print(dat)
                                   compound  readoutkind           value
1  CCC1(c2cccc(-c3ccnc(C)c3)c2)C2=C(CC(C)(C)NC2=O)Nc2n[nH]c(C(F)(F)F)c21 (stereo not shown) [Compound 947858]         IC50        ≤ 100 nM
2  CCC1(c2cccc(-c3ccnc4cc(OC)ccc34)c2)C2=C(CC(C)(C)NC2=O)Nc2n[nH]cc21 (stereo not shown) [Compound 948661]         IC50  100 to 1000 nM
3  CC[C@@]1(c2cccc(-c3c(C)nn(C)c3C)c2)C2=C(CC(C)(C)NC2=O)Nc2n[nH]cc21         IC50       > 5000 nM

We now examine a further compound.
Fill in IC50 for record CCC1(c2cccc(C(F)(F)F)c2)C2=C(CC(C)CC2=O)Nc2n[nH]cc21 (stereo not shown) [Compound 810452]
1000 to 5000 nM

---

- assayTarget: GSK3b (GST-full length GSK3b) (Homo sapiens (Human), UniProt P49841)
- methodNotes: GSK3b TR-FRET kinase assay
- Type: biochemical
- testSettings: 1 nM GSK3b, 2 μM ATP, 30 minute preincubation; read-out: GSK3-B TR-FRET BIOCHEMICAL (TR-FRET); IC50
readoutKind: IC50

For orientation, consider the following solved cases.
> print(dat)
                                   compound           value
1  CC1(C)CC(=O)C2=C(C1)Nc1n[nH]cc1[C@]21CCN(S(=O)(=O)CC2CC2)C1        ≤ 100 nM
2  CC(=O)N1CCC2(C1)CC1(CO2)C2=C(CC(C)(C)CC2=O)Nc2n[nH]cc21 (stereo not shown)  100 to 1000 nM
3  CC1(C)CC(=O)C2=C(C1)Nc1n[nH]cc1C21CCN(S(=O)(=O)c2ccccc2OC(F)F)CC1        ≤ 100 nM

Please supply IC50 for each of the following items, keeping them in order.
1. CCC1(c2cccc(C(F)(F)F)c2)C2=C(CC(C(C)(C)C)NC2=O)Nc2n[nH]cc21 (stereo not shown) [Compound 945923]
2. CC1(C)CC(=O)C2=C(C1)Nc1n[nH]cc1C21COC2(CN(C(=O)C3(F)CCC3)C2)C1 (stereo not shown) [Compound 947736]
3. CC1(C)CC(=O)C2=C(C1)Nc1n[nH]cc1C21CC2(CCCC2)C1
4. CC1(C)CC(=O)C2=C(C1)Nc1n[nH]cc1C21CCN(S(=O)(=O)c2cccc(C(F)F)c2)CC1
5. CCC1(c2cccc(C(F)(F)F)c2)C2=C(CC(C(C)(C)C)NC2=O)Nc2n[nH]cc21 (stereo not shown) [Compound 945921]
6. Cc1ccc(C(=O)N2CC3(C2)CC2(CO3)C3=C(CC(C)(C)CC3=O)Nc3n[nH]cc32)cc1 (stereo not shown)
7. CC1(C)CC(=O)C2=C(C1)Nc1n[nH]cc1[C@]21COC2(CCC2)C1
8. CC1(C)CC(=O)C2=C(C1)Nc1n[nH]cc1C21COC2(CN(C(=O)C3CCCCC3)C2)C1 (stereo not shown)

1: > 5000 nM; 2: 100 to 1000 nM; 3: ≤ 100 nM; 4: ≤ 100 nM; 5: > 5000 nM; 6: ≤ 100 nM; 7: 100 to 1000 nM; 8: 100 to 1000 nM

State the recorded IC50 for every item in the following list.
1. CCC1(c2cccc(-c3cn(C)nc3C)c2)C2=C(CC(C)(C)NC2=O)Nc2n[nH]c(C)c21 (stereo not shown)
2. Cc1cnc2c(S(=O)(=O)N3CCC4(CC3)C3=C(CC(C)(C)CC3=O)Nc3n[nH]cc34)cccc2c1

1: ≤ 100 nM; 2: ≤ 100 nM

---

- assayTarget: GSK3b (GST-full length GSK3b) (Homo sapiens (Human), UniProt P49841)
- methodNotes: GSK3b TR-FRET kinase assay
- Type: biochemical
- testSettings: read-out: GSK3-B (TR-FRET 1 mM ATP); GMean; IC50; 1 mM ATP; geometric mean
Provide the reported IC50 of each item.

> print(dat)
                                   compound            value
1  Cc1ccc(S(C)(=O)=O)cc1C1(C)C2=C(CC(C)(C)CC2=O)Nc2n[nH]c(CC(C)(C)C)c21 (stereo not shown) [Compound 126397]         ≤ 100 nM
2  CCC1(c2cccc(-c3ccnc(C)c3)c2)C2=C(CC(C)(C)NC2=O)Nc2n[nH]cc21 (stereo not shown)        > 5000 nM
3  CCC1(c2cccc(-c3cnn(-c4ccccn4)c3)c2)C2=C(CC(C)(C)NC2=O)Nc2n[nH]cc21 (stereo not shown)        > 5000 nM
4  CCC1(c2cccc(-c3ccnc4c3CCC4)c2)C2=C(CC(C)(C)CC2=O)Nc2n[nH]cc21 (stereo not shown)  1000 to 5000 nM
5  CC[C@]1(c2cccc(-c3ccncc3OC)c2)C2=C(CC(C)(C)CC2=O)Nc2n[nH]cc21        > 5000 nM
6  CCC1(c2cccc(-c3c(F)cncc3OC)c2)C2=C(Nc3n[nH]cc31)C(F)C(C)(C)CC2=O (stereo not shown) [Compound 948547]  1000 to 5000 nM

Supply measured IC50 of CC[C@@]1(c2cccc(-c3cnn(C)c3)c2)C2=C(CC(C)(C)NC2=O)Nc2n[nH]c(C(F)F)c21 in your reply.
100 to 1000 nM

---

- assayTarget: GSK3b (GST-full length GSK3b) (Homo sapiens (Human))
- methodNotes: GSK3b TR-FRET kinase assay
- Assay type: biochemical
- testSettings: read-out: GSK3-B (TR-FRET 1 mM ATP); GMean; IC50; 1 mM ATP; geometric mean
Would you kindly list IC50 for each of these compounds?

Here is how some compounds turned out for IC50.
> print(dat)
                                   compound  readoutkind           value
1  CCC1(c2cccc(-c3cnn(C)c3)c2)C2=C(CC(C)CC2=O)Nc2n[nH]cc21 (centres unmarked) [Compound 823721]         IC50       > 5000 nM
2  CC[C@]1(c2cccc(-c3c(C)nn(C)c3C)c2)C2=C(CC(C)(C)CC2=O)Nc2n[nH]c(C)c21 [Compound 913043]         IC50  100 to 1000 nM
3  CN(C)S(=O)(=O)c1cccc(C2(C)C3=C(CC(C)(C)CC3=O)Nc3n[nH]c(CC(C)(C)C)c32)c1 (centres unmarked) [Compound 126012]         IC50  100 to 1000 nM

Each of the following entries comes with a recorded value; kindly state IC50 for each.
1. CCC1(c2cccc(S(=O)(=O)c3ccccc3)c2)C2=C(CC(C)(C)CC2=O)Nc2n[nH]cc21 (centres unmarked) [Compound 913123]
2. CCC1(c2cccc(-c3cncn3C)c2)C2=C(CC(C)(C)NC2=O)Nc2n[nH]c(C(F)(F)F)c21 (centres unmarked) [Compound 949010]
3. CCC1(c2cccc(N(C)c3cccnn3)c2)C2=C(CC(C)(C)CC2=O)Nc2n[nH]cc21 (centres unmarked) [Compound 911975]
4. CC[C@@]1(c2cccc(-c3ccnn3C)c2)C2=C(Nc3n[nH]cc31)[C@H](F)C(C)(C)CC2=O [Compound 957507]
5. CC(C)(C)Cc1[nH]nc2c1[C@@](C)(c1cccc(S(=O)(=O)C(F)(F)F)c1)C1=C(CC(C)(C)CC1=O)N2 [Compound 126396]
6. Cn1cc(-c2cccc([C@@]3(C)C4=C(CC(C)(C)CC4=O)Nc4n[nH]c(CC(C)(C)C)c43)c2)cn1 [Compound 126367]

["100 to 1000 nM", "≤ 100 nM", "1000 to 5000 nM", "1000 to 5000 nM", "> 5000 nM", "> 5000 nM"]

Dear colleague, could you send me IC50 for each of the items below? Thanks.
1. CC[C@]1(c2cccc(-c3ccncc3C)c2)C2=C(CC(C)(C)CC2=O)Nc2n[nH]c(C(F)(F)F)c21 [Compound 947324]
2. CC[C@]1(c2cccc(-c3cnn(C)c3C(F)(F)F)c2)C2=C(CC(C)(C)NC2=O)Nc2n[nH]cc21 [Compound 948815]
3. CCC1(c2cccc(S(=O)(=O)CC3CC3)c2)C2=C(CC(C)(C)CC2=O)Nc2n[nH]cc21 (centres unmarked) [Compound 917150]
4. CN1CC2(C3=C(CC(C)(C)CC3=O)Nc3n[nH]c(C4CC(F)(F)C4)c32)c2ccccc21 (centres unmarked) [Compound 119048]

≤ 100 nM
> 5000 nM
100 to 1000 nM
100 to 1000 nM

Please report the measured IC50 for CCC1(c2cccc(S(=O)(=O)C(C)C)c2)C2=C(CC(C)(C)NC2=O)Nc2n[nH]c(C)c21 (centres unmarked) [Compound 947876]
100 to 1000 nM
